Assay: Plasma pharmacokinetics after a single oral dose of rucaparib 600 mg in patients with advanced solid tumors, by hepatic function group
Conditions: human, plasma, po, 600 mg, Vz/F, Median (min–max), NCI-ODWG normal hepatic function; single oral rucaparib 600 mg
measure-name: Vd/F (L)
Please reply with the bare figure in L and do not write the unit itself.

Task: Which Vd/F value is on record for CNCc1ccc(-c2[nH]c3cc(F)cc4c3c2CCNC4=O)cc1 [rucaparib] ?
Output: 1270

---

Assay: Plasma pharmacokinetics after a single oral dose of rucaparib 600 mg in patients with advanced solid tumors, by hepatic function group
Conditions: human, plasma, po, 600 mg, AUC0–last, GM, Child–Pugh mild hepatic impairment; single oral rucaparib 600 mg
measure-name: AUC(0-t) (µg·h/mL)
Please reply with the bare figure in µg·h/mL and do not write the unit itself.

Task: Which AUC(0-t) value is on record for `CNCc1ccc(-c2[nH]c3cc(F)cc4c3c2CCNC4=O)cc1` ?
Output: 8.91
